System: PBMC from coeliac subjects
Assay: IFNγ ELISPOT with PBMC of coeliac disease subjects after bread/gluten challenge
Format: cell-based, human
Settings: tTG-treated wild type peptide, 25 mcg/ml, 4 subjects, blank 5 (1) %
OBSERVABLE: ELISpot response as % A-gliadin 57-73 QE65, Wildtype + tTG

- SEQUENCE_ENTRY: "QQYPSGEGSFQPSQENPQ [reference compound]"
  RESULT: "9 (3) %"
- SEQUENCE_ENTRY: "QLQPFPQPELPY [reference compound]"
  RESULT: "19 (1) %"
- SEQUENCE_ENTRY: "QLQPFPQPELPYPQPQS (listed as Triticum sp.) [A-gliadin 57-73 QE65]"
  RESULT: "87 (7) %"

Reported ELISpot response as % A-gliadin 57-73 QE65, Wildtype + tTG of PQPELPYPQPELPY [reference compound] : 53 (8) %

Measured ELISpot response as % A-gliadin 57-73 QE65, Wildtype + tTG of QQLPQPEQPQQSFPEQERPF [reference compound] : 18 (7) %

Query PQLPYPQPELPYPQPQP [P04724 84-100 QE92, glutamate-substituted polymorphism GDA4_WHEAT P04724 84-100 (K)] yields ELISpot response as % A-gliadin 57-73 QE65, Wildtype + tTG of 80 (17) %

----------
Tested on: PBMC from coeliac volunteers
Assay: Antagonism of A-gliadin 57-73 QE65 interferon gamma ELISPOT response (simultaneous addition of peptide)
Format: cell-based, human
Settings: substituted variant 50 μg/ml plus A-gliadin 57-73 QE65 10 μg/ml, n=5
OBSERVABLE: % Inhibit. of A-gliadin 57-73 QE65 interferon gamma ELISpot response (%)
Express the result in % but write the number alone.

- COMPOUND_STRUCTURE: "N[C@@H](Cc1c[nH]cn1)C(=O)O"
  RECORDED_NUMBER: 20

Tested on PBMC from coeliac volunteers, the item NCCCC[C@H](N)C(=O)O showed % Inhibit. of A-gliadin 57-73 QE65 interferon gamma ELISpot response equal to 15

% Inhibit. of A-gliadin 57-73 QE65 interferon gamma ELISpot response on PBMC from coeliac volunteers for N=C(N)NCCC[C@H](N)C(=O)O is 13

----------
Tested on: PBMC from coeliac subjects
Assay: IFNγ ELISPOT with PBMC of coeliac disease subjects after bread/gluten challenge
Assay type: cell-based, human
Settings: agonist activity compared to A-gliadin 57-73 QE65 as shown in Table 9
Known % agonist. of a selection of compounds
Please format your answer as a value with the unit trailing.

The value of % agonist. measured for the compound N[C@@H](Cc1ccc(O)cc1)C(=O)O turned out to be 7%

The measured % agonist. associated with NCCCC[C@H](N)C(=O)O reads 8%

Consider N[C@@H](Cc1c[nH]cn1)C(=O)O . Its measured % agonist. is 16%

Field % agonist. (entry N=C(N)NCCC[C@H](N)C(=O)O ) reads 11%

The recorded % agonist. for C[C@@H](O)[C@H](N)C(=O)O is 19%

Consider CC(C)C[C@H](N)C(=O)O . Its measured % agonist. is 26%

----------
System: PBMC from coeliac volunteers
Test: Antagonism of A-gliadin 57-73 QE65 interferon gamma ELISPOT response (simultaneous addition of peptide)
Type: cell-based, human
Conditions: substituted variant 50 μg/ml plus A-gliadin 57-73 QE65 10 μg/ml, n=5
Each entry below lists one item and its recorded % Inhibit. of A-gliadin 57-73 QE65 interferon gamma ELISpot response value.
Note: unit % is implicit; provide only the numeric part.

Known % Inhibit. of A-gliadin 57-73 QE65 interferon gamma ELISpot response results, listed for orientation:
- COMPOUND_STRUCTURE: "N[C@@H](Cc1ccc(O)cc1)C(=O)O"
  OUTPUT_UNIT: "%"
  RECORDED_NUMBER: 12
- COMPOUND_STRUCTURE: "C[C@@H](O)[C@H](N)C(=O)O"
  OUTPUT_UNIT: "%"
  RECORDED_NUMBER: 28

Looking up CC(C)C[C@H](N)C(=O)O , I see its % Inhibit. of A-gliadin 57-73 QE65 interferon gamma ELISpot response listed as 20
